Origin of the recorded values: ChEMBL document CHEMBL4038341

Experiment: Oral bioavailability in Sprague-Dawley rat at 1.5 mg/kg measured up to 7 hrs post dose by HPLC analysis
Type: ADME, organism-based
Settings: in vivo
Property: bioavailability; scope: individual compounds
Provide the reading as a plain figure in %.

{"columns": ["smilesEntry", "bioavailability (%)"],
 "data": [
  ["CNc1nc(-c2ccc3c(c2)CCN3C(=O)c2ccccc2OCc2ccc(Cl)cc2)cs1", 1.4],
  ["[2H]C([2H])([2H])Nc1nc(-c2cc(C(=O)N3CCN(Cc4ccc(Cl)cc4)CC3)c(Cl)cn2)cs1", 45]
]}

Dear colleague, please send me the reported bioavailability for CNc1nc(-c2cc(C(=O)N3CCN(Cc4ccc(Cl)cc4)CC3)c(Cl)cn2)cs1 when you can. 21

----------
Assay: Clearance in Sprague-Dawley rat at 0.5 mg/kg, iv measured up to 7 hrs post dose by HPLC analysis
Format: ADME, organism-based
Conditions: in vivo
assayMetric: clearance
Your reply should be a number followed by the unit it is expressed in.

{"columns": ["smilesEntry", "clearance"],
 "data": [
  ["[2H]C([2H])([2H])Nc1nc(-c2cc(C(=O)N3CCN(Cc4ccc(Cl)cc4)CC3)c(Cl)cn2)cs1", "24 mL/min/kg"],
  ["CNc1nc(-c2ccc3c(c2)CCN3C(=O)c2ccccc2OCc2ccc(Cl)cc2)cs1", "108 mL/min/kg"]
]}

Now for a further molecule.
Supply measured clearance of CNc1nc(-c2cc(C(=O)N3CCN(Cc4ccc(Cl)cc4)CC3)c(Cl)cn2)cs1 in your reply. 36 mL/min/kg

----------
Target: Serine/threonine-protein kinase WNK1 (Homo sapiens, UniProt Q9H4A3)
Sequence (Q9H4A3 whole entry): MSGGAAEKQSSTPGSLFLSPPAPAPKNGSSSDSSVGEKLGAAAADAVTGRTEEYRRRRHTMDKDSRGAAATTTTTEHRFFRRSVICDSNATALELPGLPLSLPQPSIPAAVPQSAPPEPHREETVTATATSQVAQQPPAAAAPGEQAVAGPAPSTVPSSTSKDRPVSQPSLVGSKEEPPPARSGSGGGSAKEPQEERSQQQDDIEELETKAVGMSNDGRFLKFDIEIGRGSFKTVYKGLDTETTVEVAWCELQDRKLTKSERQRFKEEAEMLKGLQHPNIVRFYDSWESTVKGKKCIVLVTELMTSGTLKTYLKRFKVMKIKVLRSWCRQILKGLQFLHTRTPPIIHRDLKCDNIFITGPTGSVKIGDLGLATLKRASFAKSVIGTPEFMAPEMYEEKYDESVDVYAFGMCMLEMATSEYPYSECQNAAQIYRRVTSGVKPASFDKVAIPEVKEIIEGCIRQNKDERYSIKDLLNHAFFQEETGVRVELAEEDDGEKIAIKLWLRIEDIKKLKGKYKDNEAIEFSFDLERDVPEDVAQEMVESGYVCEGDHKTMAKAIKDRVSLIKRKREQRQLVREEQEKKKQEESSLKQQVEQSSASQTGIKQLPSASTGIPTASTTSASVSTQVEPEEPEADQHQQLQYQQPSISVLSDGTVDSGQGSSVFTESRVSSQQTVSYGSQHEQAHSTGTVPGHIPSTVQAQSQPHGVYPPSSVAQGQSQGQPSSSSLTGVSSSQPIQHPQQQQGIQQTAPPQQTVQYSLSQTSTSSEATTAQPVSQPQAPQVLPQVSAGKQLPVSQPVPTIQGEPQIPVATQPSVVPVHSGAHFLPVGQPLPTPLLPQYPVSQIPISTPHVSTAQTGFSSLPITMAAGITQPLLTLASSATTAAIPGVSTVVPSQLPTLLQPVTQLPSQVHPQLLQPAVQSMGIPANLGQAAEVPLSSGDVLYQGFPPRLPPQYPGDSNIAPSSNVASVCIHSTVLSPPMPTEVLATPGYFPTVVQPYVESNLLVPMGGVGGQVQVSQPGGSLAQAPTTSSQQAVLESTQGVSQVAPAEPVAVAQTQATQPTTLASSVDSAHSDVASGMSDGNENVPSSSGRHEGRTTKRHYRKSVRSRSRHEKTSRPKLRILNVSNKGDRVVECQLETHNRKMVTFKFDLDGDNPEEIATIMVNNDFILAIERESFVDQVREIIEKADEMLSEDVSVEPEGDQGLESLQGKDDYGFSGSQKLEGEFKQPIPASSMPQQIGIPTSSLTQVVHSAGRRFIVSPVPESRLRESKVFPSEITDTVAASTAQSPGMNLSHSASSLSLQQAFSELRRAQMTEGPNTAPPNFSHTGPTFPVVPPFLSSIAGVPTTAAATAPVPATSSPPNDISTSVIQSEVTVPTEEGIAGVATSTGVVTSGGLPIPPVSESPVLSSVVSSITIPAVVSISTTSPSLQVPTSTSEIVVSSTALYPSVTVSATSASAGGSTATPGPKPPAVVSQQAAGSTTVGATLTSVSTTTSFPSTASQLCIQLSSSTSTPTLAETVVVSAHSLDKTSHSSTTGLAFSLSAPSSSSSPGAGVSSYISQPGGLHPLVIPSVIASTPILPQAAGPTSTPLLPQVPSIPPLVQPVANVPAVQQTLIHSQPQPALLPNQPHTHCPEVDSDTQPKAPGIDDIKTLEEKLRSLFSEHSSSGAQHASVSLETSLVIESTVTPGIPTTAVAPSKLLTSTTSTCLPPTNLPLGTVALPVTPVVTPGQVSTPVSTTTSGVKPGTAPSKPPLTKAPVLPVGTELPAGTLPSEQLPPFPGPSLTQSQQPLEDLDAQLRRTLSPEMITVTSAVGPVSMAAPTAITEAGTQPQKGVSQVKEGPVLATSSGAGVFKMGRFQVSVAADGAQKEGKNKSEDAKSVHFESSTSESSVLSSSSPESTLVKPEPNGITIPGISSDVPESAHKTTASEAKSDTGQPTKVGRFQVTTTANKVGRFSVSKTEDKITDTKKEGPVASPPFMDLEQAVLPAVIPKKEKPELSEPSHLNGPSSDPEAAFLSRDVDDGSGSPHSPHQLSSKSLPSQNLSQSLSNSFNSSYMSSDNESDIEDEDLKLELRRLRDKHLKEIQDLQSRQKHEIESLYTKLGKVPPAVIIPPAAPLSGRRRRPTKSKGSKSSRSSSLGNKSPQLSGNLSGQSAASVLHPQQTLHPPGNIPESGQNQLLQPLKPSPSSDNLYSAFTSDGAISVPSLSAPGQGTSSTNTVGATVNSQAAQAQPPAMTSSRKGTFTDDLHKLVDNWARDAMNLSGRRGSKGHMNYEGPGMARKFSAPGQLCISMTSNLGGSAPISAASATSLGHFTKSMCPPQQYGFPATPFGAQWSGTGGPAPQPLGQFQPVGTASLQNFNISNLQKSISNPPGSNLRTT
Assay: Allosteric inhibition of WNK1 (unknown origin) expressed in HEK293 cells co-expressing flag-OSR1 assessed as reduction in sorbitol-stimulated OSR1 phosphorylation preincubated with compound for 2.5 hrs followed co-administration with sorbitol measured after 1 hr by AlphaLISA assay
Assay type: cell-based
# IC50 listing for each entry below
Answer with a number only, understood to be in nM.

{"columns": ["smilesEntry", "assayMetric", "displayUnit", "assayValue"],
 "data": [
  ["[2H]C([2H])([2H])Nc1nc(-c2cc(C(=O)N3CCN(Cc4ccc(Cl)cc4)CC3)c(Cl)cn2)cs1", "IC50", "nM", 589]
]}

Please indicate recorded IC50 of CNc1nc(-c2cc(C(=O)N3CCN(Cc4ccc(Cl)cc4)CC3)c(Cl)cn2)cs1 measured with Serine/threonine-protein kinase WNK1 (Homo sapiens, UniProt Q9H4A3). 352

Write down measured IC50 (Serine/threonine-protein kinase WNK1 (Homo sapiens, UniProt Q9H4A3)) for this molecule. COc1cccc(-c2cc(-n3cc(CNCC(C)C)c4ccccc43)c(C)cn2)c1 1390
